The entries below come with measured Autosampler for 24 h Remain values attached.
assay: Stability of the analytes in rat plasma QC samples under storage conditions; format: in vitro ADME; conditions: 300 ng/mL
Kindly answer with a numeric value in %, unit omitted.

In the examples that follow, each entry is paired with its recorded Autosampler for 24 h Remain.
{"Compound": "COC(=O)C1=CO[C@@H](O[C@@H]2O[C@H](CO[C@@H]3O[C@H](CO)[C@@H](O)[C@H](O)[C@H]3O)[C@@H](O)[C@H](O)[C@H]2O)[C@@H]2C(CO)=CC[C@H]12 [Genipin-1-β-gentiobioside]", "Value Measured": 101}
{"Compound": "COC(=O)C1=CO[C@@H](O[C@@H]2O[C@H](CO)[C@@H](O)[C@H](O)[C@H]2O)[C@@H]2C(CO)=CC[C@H]12 [Geniposide]", "Value Measured": 96.3}
{"Compound": "CC(/C=C/C=C(\\C)C(=O)O)=C\\C=C\\C=C(C)\\C=C\\C=C(/C)C(=O)O [Crocetin]", "Value Measured": 96.3}

## Input Find the recorded Autosampler for 24 h Remain belonging to O=C(O)C1=CO[C@@H](O[C@@H]2O[C@H](CO)[C@@H](O)[C@H](O)[C@H]2O)[C@@H]2C(CO)=CC[C@H]12 [Geniposidic acid] and report it.
## Output 96.4

## Input Find the recorded Autosampler for 24 h Remain belonging to COC(=O)C1=CO[C@@H](O)[C@@H]2C(CO)=CC[C@H]12 [Genipin] and report it.
## Output 90.6

---

The entries below come with measured Cmax values attached.
assay: Pharmacokinetics in rat plasma after oral administration of CGF, SGF, GCGF and GIGF extracts (LC-MS/MS); conditions: male, Sprague-Dawley, rat, plasma, po, 0.75 mL/kg, C max, rat plasma, single oral dose of GCGF extract 0.75 mL/kg, n = 6, mean ± SD
Kindly answer with a numeric value in ng/mL, unit omitted.

{"Compound": "COC(=O)C1=CO[C@@H](O)[C@@H]2C(CO)=CC[C@H]12", "Value Measured": 68.5}
{"Compound": "O=C(O)C1=CO[C@@H](O[C@@H]2O[C@H](CO)[C@@H](O)[C@H](O)[C@H]2O)[C@@H]2C(CO)=CC[C@H]12", "Value Measured": 670}
{"Compound": "COC(=O)C1=CO[C@@H](O[C@@H]2O[C@H](CO)[C@@H](O)[C@H](O)[C@H]2O)[C@@H]2C(CO)=CC[C@H]12 [Geniposide]", "Value Measured": 581}

Please look at the following compound next.
## Input Find the recorded Cmax belonging to "CC(/C=C/C=C(\C)C(=O)O)=C\C=C\C=C(C)\C=C\C=C(/C)C(=O)O" and report it.
## Output 163

---

The entries below come with measured Tmax values attached.
test: Pharmacokinetics in rat plasma after oral administration of CGF, SGF, GCGF and GIGF extracts (LC-MS/MS); conditions: male, Sprague-Dawley, rat, plasma, po, 0.75 mL/kg, T max, rat plasma, single oral dose of CGF extract 0.75 mL/kg, n = 6, mean ± SD
Kindly answer with a numeric value in h, unit omitted.

{"Molecule": "COC(=O)C1=CO[C@@H](O[C@@H]2O[C@H](CO)[C@@H](O)[C@H](O)[C@H]2O)[C@@H]2C(CO)=CC[C@H]12 [Geniposide]", "Unit String": "h", "Tmax": 1.54}
{"Molecule": "O=C(O)C1=CO[C@@H](O[C@@H]2O[C@H](CO)[C@@H](O)[C@H](O)[C@H]2O)[C@@H]2C(CO)=CC[C@H]12", "Unit String": "h", "Tmax": 3.33}
{"Molecule": "CC(/C=C/C=C(\\C)C(=O)O)=C\\C=C\\C=C(C)\\C=C\\C=C(/C)C(=O)O", "Unit String": "h", "Tmax": 7.3}

Please look at the following molecule next.
## Input Find the recorded Tmax belonging to "COC(=O)C1=CO[C@@H](O)[C@@H]2C(CO)=CC[C@H]12" and report it.
## Output 1.11
